Reference source for all entries: patent US12612380B2

Measured IC50 of individual entries
Target: GBA2 (Homo sapiens)
Sequence (Q9HCG7 whole entry): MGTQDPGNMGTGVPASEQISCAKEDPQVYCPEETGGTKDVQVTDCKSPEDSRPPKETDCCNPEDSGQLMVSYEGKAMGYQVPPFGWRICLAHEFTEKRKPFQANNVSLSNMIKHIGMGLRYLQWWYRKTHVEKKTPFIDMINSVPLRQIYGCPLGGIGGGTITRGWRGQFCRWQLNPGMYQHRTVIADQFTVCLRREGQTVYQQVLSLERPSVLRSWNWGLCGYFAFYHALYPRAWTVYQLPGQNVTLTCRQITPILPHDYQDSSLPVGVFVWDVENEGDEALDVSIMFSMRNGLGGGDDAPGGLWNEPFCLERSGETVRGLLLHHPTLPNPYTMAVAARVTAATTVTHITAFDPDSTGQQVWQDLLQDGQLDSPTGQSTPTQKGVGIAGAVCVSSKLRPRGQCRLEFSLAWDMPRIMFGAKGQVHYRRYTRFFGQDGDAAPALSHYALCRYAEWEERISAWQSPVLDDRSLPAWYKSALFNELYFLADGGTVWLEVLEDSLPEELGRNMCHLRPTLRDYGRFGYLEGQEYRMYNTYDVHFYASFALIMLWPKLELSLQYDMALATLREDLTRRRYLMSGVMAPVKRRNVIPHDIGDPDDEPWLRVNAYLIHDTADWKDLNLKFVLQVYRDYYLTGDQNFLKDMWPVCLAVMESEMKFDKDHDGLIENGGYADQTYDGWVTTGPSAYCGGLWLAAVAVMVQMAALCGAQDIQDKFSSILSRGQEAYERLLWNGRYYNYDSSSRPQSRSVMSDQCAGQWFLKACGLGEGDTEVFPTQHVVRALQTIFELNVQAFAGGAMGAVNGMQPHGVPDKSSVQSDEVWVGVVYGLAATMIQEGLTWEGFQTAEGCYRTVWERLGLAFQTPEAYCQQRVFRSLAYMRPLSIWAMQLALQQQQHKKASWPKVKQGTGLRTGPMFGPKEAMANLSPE
Assay: Determination of IC50 values for inhibition of GBA2 in cell lysate
Type: biochemical
Parameters: host or cells: HEK293T (lentiviral transduction, puromycin selection); used as cellular homogenate
Conditions: cellular homogenate of HEK293T cells overexpressing human GBA2, 250 μM 4-methylumbelliferone-β-D glucopyranoside, pH 5.5, 37° C., GCase inhibitor present; read-out: GBA2 IC50

Guide cases for IC50, answers given:
C[C@@H]1[C@@H](O)[C@H](O)[C@@H](O)CN1CCc1ccc(-c2ccccc2)cc1 [Example 68] = < 100 nM
C[C@@H]1[C@@H](O)[C@H](O)[C@@H](O)CN1CC1CCC(C)(C)CC1 [Example 2] = 100 to 1000 nM
C[C@@H]1[C@@H](O)[C@H](O)[C@@H](O)CN1C[C@H]1CCN(c2cccc(F)c2)C1 [Example 117] = < 100 nM
C[C@@H]1[C@@H](O)[C@H](O)[C@@H](O)CN1C[C@H]1CCN(C(=O)c2ccc(C(F)(F)F)cc2)C1 [Example 130] = < 100 nM

In: // query IC50 value for entry C[C@@H]1[C@@H](O)[C@H](O)[C@@H](O)CN1CC1CCN(C(=O)CC2CCCC2)CC1 [Example 97]
Out: 100 to 1000 nM

In: // query IC50 value for entry C[C@@H]1[C@@H](O)[C@H](O)[C@@H](O)CN1C[C@@H]1CCN(c2cncnc2C(F)(F)F)C1 [Example 134]
Out: < 100 nM

In: // query IC50 value for entry C[C@@H]1[C@@H](O)[C@H](O)[C@@H](O)CN1C[C@H]1CC[C@H](C2CC2)CC1 [Example 21]
Out: < 100 nM

In: // query IC50 value for entry C[C@@H]1[C@@H](O)[C@H](O)[C@@H](O)CN1CC1CCC2(CC1)CC2 [Example 23]
Out: 100 to 1000 nM

In: // query IC50 value for entry CC(C)C(=O)N1CCC(CN2C[C@H](O)[C@@H](O)[C@H](O)[C@H]2C)CC1 [Example 92]
Out: 1000 to 25000 nM

In: // query IC50 value for entry C[C@@H]1[C@@H](O)[C@H](O)[C@@H](O)CN1CC1(F)CCN(c2ccccc2)CC1 [Example 88]
Out: 100 to 1000 nM

In: // query IC50 value for entry C[C@@H]1[C@@H](O)[C@H](O)[C@@H](O)CN1CC1CCN(C(=O)c2cccc(C(F)(F)F)c2)CC1 [Example 107]
Out: < 100 nM

In: // query IC50 value for entry C[C@@H]1[C@@H](O)[C@H](O)[C@@H](O)CN1CCc1ccc(Oc2ccccc2)cc1 [Example 64]
Out: < 100 nM

In: // query IC50 value for entry C[C@@H]1[C@@H](O)[C@H](O)[C@@H](O)CN1CC1CCc2ccccc2C1 (stereo partly shown) [Example 27]
Out: < 100 nM
